Target: T1, human Trop-2-His protein (human, UniProt P09758 27-274)
T1 construct: extracellular domain; Assay paragraphs say only 'Trop-2-His'; also called hTrop-2; Kactus Cat #TRP-HM121; not shown: His tag
T1 sequence (looked up): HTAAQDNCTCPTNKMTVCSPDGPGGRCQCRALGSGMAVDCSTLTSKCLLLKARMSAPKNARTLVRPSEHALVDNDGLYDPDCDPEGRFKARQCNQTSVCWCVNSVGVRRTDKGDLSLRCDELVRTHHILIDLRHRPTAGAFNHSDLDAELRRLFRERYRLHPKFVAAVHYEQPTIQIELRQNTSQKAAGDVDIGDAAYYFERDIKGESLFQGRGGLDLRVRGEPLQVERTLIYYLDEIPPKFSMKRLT
Test: BLI (Gator Plus), purified Ab on HFC probe
Parameter Measured: pKd
pKd field: float, defined as -log10 of concentration (mol/L).

// solved cases for pKd follow
Binder	pKd
65D5 (antibody, V domains shown, Rabbit-derived clone; LEM construct: VH + rabbit IgG CH1 + human IgG1 CH2-CH3) VH: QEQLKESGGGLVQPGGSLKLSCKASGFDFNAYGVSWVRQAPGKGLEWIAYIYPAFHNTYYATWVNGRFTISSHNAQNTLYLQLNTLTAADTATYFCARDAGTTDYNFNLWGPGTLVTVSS VL: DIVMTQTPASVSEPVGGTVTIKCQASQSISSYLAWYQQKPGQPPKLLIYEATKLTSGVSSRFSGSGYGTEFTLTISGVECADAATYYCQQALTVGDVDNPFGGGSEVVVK	8.96
62E3 (antibody, V domains shown, Rabbit-derived clone; LEM construct: VH + rabbit IgG CH1 + human IgG1 CH2-CH3) VH: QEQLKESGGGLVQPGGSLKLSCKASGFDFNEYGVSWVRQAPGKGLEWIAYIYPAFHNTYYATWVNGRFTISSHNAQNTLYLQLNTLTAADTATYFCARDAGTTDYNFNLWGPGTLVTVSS VL: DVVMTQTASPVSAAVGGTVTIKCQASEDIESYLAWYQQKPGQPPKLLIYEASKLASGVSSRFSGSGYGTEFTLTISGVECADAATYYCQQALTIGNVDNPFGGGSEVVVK	9.23

Moving on to another binder below.
I have this binder here, 5D4-1 (antibody, V domains shown) VH: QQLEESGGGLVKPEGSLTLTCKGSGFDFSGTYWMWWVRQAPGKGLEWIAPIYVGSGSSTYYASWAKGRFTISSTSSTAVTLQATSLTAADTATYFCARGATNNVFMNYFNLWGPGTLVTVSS VL: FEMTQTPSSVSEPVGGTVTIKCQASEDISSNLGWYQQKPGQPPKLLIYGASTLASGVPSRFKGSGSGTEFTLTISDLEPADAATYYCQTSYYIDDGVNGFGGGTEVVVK , and I need its recorded pKd.
10.00
